biological target: 5-hydroxytryptamine receptor 1A (Rattus norvegicus)
Sequence (P19327 whole entry): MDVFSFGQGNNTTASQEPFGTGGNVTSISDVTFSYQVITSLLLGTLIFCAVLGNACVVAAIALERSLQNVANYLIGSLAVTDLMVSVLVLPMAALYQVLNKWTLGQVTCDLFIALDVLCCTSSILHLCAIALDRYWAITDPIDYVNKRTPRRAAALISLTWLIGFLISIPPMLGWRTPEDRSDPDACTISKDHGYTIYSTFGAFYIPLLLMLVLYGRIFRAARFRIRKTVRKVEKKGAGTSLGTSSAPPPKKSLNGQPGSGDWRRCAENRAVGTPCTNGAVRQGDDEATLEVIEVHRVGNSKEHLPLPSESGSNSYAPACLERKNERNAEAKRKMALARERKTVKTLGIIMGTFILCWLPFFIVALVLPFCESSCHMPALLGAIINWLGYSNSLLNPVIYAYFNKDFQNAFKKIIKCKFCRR
pKi: −log10 of the molar value.
Measured pKi accompanies every entry in the list below.

// known answers, use as guide
COMPOUND	pKi
O=c1n(CCCCNCc2ccco2)c(O)c2n1CCC2	< 6.00
O=c1n(CCCCNCCc2ccccn2)c(O)c2n1CCC2	< 6.00
O=c1n(CCCCNCCc2ccccc2)c(O)c2n1CCC2	< 6.00

Fetch value of pKi on 5-hydroxytryptamine receptor 1A (Rattus norvegicus) for O=c1n(CC#CCNCC2CCc3ccccc3O2)c(O)c2n1CCC2 (stereo unspecified) . < 6.00

Fetch value of pKi on 5-hydroxytryptamine receptor 1A (Rattus norvegicus) for O=c1n(CCCCNCc2ccccc2)c(O)c2n1CCC2 . < 6.00

Fetch value of pKi on 5-hydroxytryptamine receptor 1A (Rattus norvegicus) for O=c1n(CCCCNCCc2cccc3ccccc23)c(O)c2n1CCC2 . 7.55

* * *

molecular target: D(2) dopamine receptor (Rattus norvegicus, UniProt P61169); test: Displacement of [3H]spiperone from dopamine D2 receptor in Sprague-Dawley albinus rat striatal membranes after 15 mins
Sequence (P61169 whole entry): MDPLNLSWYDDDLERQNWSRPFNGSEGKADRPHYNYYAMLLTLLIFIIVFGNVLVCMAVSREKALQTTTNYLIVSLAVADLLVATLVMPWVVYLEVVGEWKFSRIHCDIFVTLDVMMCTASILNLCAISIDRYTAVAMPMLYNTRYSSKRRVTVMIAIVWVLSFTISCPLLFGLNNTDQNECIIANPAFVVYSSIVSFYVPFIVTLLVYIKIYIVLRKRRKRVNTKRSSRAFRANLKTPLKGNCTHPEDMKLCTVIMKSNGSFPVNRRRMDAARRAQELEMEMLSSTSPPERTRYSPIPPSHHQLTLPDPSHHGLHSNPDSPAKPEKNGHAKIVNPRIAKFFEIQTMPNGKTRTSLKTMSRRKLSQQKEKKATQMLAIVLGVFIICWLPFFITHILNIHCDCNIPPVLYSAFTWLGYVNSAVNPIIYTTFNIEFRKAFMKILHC
pKi: −log10 of the molar value.
QUANTITY KIND: pKi

O=c1n(CCCCNCCc2ccc3ccccc3c2)c(O)c2n1CCC2 < 6.00

# ---- query molecule ----
Name the recorded pKi of the molecule listed here: O=c1n(CCCCNCCc2cccc3ccccc23)c(O)c2n1CCC2 < 6.00

* * *

Biological target: 5-hydroxytryptamine receptor 3A (Rattus norvegicus, UniProt P35563)
Sequence (P35563 whole entry): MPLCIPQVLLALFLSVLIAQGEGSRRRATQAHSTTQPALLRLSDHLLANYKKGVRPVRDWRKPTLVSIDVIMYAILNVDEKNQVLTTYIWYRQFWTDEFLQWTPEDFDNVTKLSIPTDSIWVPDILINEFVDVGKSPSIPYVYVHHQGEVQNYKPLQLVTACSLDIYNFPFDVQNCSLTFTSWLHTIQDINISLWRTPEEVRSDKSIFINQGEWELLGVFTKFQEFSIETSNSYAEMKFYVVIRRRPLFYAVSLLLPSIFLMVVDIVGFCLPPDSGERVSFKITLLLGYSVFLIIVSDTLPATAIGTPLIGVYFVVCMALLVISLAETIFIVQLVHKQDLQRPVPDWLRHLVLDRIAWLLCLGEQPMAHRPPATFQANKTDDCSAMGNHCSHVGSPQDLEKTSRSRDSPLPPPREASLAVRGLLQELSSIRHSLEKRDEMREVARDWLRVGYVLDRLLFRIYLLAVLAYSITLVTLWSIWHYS
QUANTITY KIND: Ki

Name the recorded Ki of the compound listed here: O=c1n(CCCCNCCc2cccc3ccccc23)c(O)c2n1CCC2 > 1 µM
